Overview of recorded log10 of IC50 for various compounds
# Tested System: PI3K-γ (Homo sapiens, UniProt P48736)
# Sequence (P48736 whole entry, species assumed): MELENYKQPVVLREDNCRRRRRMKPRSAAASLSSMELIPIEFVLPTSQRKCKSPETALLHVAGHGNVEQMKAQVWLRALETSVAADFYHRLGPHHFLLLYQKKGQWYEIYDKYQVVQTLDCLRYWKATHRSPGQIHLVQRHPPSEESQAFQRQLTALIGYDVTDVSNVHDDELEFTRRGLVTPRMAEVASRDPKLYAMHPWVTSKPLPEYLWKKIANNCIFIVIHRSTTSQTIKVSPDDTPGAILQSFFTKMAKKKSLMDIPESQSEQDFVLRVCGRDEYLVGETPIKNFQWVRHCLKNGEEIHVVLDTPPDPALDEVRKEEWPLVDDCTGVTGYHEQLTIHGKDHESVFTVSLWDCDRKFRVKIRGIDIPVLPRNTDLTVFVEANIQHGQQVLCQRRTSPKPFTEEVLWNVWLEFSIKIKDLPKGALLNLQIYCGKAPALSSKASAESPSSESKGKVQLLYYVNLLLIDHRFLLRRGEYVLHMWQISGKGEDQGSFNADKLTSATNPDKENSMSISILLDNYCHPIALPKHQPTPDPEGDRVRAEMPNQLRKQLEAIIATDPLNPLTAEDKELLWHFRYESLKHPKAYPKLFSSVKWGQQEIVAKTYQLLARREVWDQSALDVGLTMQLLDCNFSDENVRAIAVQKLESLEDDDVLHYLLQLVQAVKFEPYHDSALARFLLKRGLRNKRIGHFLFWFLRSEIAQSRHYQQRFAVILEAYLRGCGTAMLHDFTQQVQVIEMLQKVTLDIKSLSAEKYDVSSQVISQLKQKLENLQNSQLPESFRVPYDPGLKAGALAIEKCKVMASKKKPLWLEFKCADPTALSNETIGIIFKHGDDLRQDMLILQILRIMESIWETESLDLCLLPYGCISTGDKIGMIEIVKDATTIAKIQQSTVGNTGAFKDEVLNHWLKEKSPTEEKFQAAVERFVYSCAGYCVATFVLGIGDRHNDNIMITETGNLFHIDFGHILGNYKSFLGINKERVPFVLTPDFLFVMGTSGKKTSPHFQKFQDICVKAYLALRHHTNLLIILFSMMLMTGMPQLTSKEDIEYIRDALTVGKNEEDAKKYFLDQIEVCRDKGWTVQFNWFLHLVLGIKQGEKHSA
# Assay Notes: PI3K-gamma fluorescence polarization assay
# Condition Label: read-out: IC50 PI3Kγ
Result Type: log10 of IC50 (log10 of the value in nM)

[[record]]
smiles_data = "CNC(=O)Nc1ccc(-c2nc(NC(C)C)nc(N3CC4CCC(C3)O4)n2)cc1"
tested_system = "PI3K-γ (Homo sapiens, UniProt P48736)"
result_type = "log10 of IC50"
test_result = 3.94

[[record]]
smiles_data = "CCN1CCN(C(=O)c2ccc(NC(=O)Nc3ccc(-c4nc(N5CCOC[C@@H]5C)nc(N5CCOC[C@@H]5C)n4)cc3)cc2)CC1"
tested_system = "PI3K-γ (Homo sapiens, UniProt P48736)"
result_type = "log10 of IC50"
test_result = 1.73

[[record]]
smiles_data = "CCCN(CCC)C1CCN(C(=O)c2ccc(NC(=O)Nc3ccc(-c4nc(N5CCOC[C@@H]5C)nc(N5CCOC[C@@H]5C)n4)cc3)cc2)CC1"
tested_system = "PI3K-γ (Homo sapiens, UniProt P48736)"
result_type = "log10 of IC50"
test_result = 1.77

[[record]]
smiles_data = "CN1CCN(C(=O)c2ccc(NC(=O)Nc3ccc(-c4nc(N5CCOCC5)nc(N5C6CCC5COC6)n4)cc3)cc2)CC1"
tested_system = "PI3K-γ (Homo sapiens, UniProt P48736)"
result_type = "log10 of IC50"
test_result = 1.63

[[record]]
smiles_data = "CCCCc1nc(-c2ccc(NC(=O)Nc3ccc(C(=O)N4CCN(C)CC4)cc3)cc2)nc(N2CCOCC2)n1"
tested_system = "PI3K-γ (Homo sapiens, UniProt P48736)"
result_type = "log10 of IC50"
test_result = 1.57

[[record]]
smiles_data = "C[C@H]1COCCN1c1nc(-c2ccc(NC(=O)Nc3ccncc3)cc2)nc(N2C3CCC2COC3)n1"
tested_system = "PI3K-γ (Homo sapiens, UniProt P48736)"
result_type = "log10 of IC50"
test_result = 2.27

[[record]]
smiles_data = "CN1CCC(Oc2nc(-c3ccc(NC(=O)Nc4ccncc4)cc3)nc(N3CCOCC3)n2)CC1"
tested_system = "PI3K-γ (Homo sapiens, UniProt P48736)"
result_type = "log10 of IC50"
test_result = 1.60

